# assay-overview: Inhibition of superoxide dismutase assessed as inhibition of superoxide generation by spectrophotometry
reported-metric: IC50

Answered examples (2):
CNC(=O)C1=C(C)C2=C(Nc3ccccc3S2)C(C(=O)NC)C1c1ccccc1OC (stereo not drawn); > 30 µM
CNC(=O)c1c(C)c2c(c(C(=O)NC)c1-c1ccccc1OC)Nc1ccccc1S2; > 30 µM

Proceed to the following item.
What does the record list as IC50 for CNC(=O)C1=C(C)C2=C(Nc3ccccc3S2)C(C(=O)NC)C1c1ccc2c(c1)OCO2 (stereo not drawn) ?
> 30 µM
